B1: library; a variant is named by its letters at N, in order (parent)
chain: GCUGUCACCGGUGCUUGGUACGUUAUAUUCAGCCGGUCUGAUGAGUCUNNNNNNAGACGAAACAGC

Variants of: B1
assay notes: normalized RNA/DNA level with ligand (relative to sTRSVctl = 100) (log10 (% of sTRSVctl)); HEK293T overexpressing SLC46A1; ligand concentration (+) RNA-Seq: 6 mM; higher = less ribozyme self-cleavage, higher mRNA level
test parameters: with (6R,S)-folinic acid; ligand present: yes
readout name: normalized RNA/DNA level with ligand (log10)

| variant spec | value |
| --- | --- |
| UAAAAU | 1.97 |
| UACAAG | 1.94 |
| GCAGCU | 2.02 |
| CAGAAC | 2.02 |
| ACUUAU | 2.02 |
| CGCAUA | 2 |
| CCGUCA | 2.05 |
| UUGCGG | 2 |
| UCCCGA | 2.07 |
| AUAUAU | 1.99 |
| UUACUU | 1.99 |
| AAGCCC | 2.04 |
| AGUCGU | 2.03 |
| GACCCG | 2 |
| CACCAU | 2 |
| UUUUGG | 2.01 |
| CACUGG | 2.03 |
| UGAAGC | 2 |
| CUCUAG | 2.02 |
| ACAAAA | 1.99 |
| CGAAUA | 1.98 |
| CUGGAG | 1.99 |
| CAGGCC | 2.02 |
| UCUUAC | 2 |
